These data points were gathered from patent US20260184726A1.

Kindly state IC50 for each of the entries shown.
tested on: BAF3 cells; experiment: BAF3 Cell Proliferation Assay (CellTiter-Glo, without RET driven, IL-3); assay type: cell-based; conditions: Mus musculus; growth inhibition in BAF3 cells, 72 hours, with IL-3; read-out: BAF3 Cellular Activity
Write down the numeric answer in nM and omit the unit.

With BAF3 cells as the test system, provide measured IC50 for this compound: CC(C)(O)c1ccc(-c2cc(-c3cnc(N4C[C@@H]5C[C@@](C)(NC(=O)c6ncccc6Cl)C[C@@H]5C4)cn3)c3c(C#N)cnn3c2)nc1
38.6

Lab note: record IC50 of COc1ccc(CN2C3CC2CN(c2ccc(-c4cc(-c5ccc(C6(O)CC6)cn5)cn5ncc(C#N)c45)cn2)C3)cn1 tested on BAF3 cells.
3060

Report IC50 under test system BAF3 cells for COc1ccc(CN2C3CC2CN(c2ccc(-c4cc(-c5ccc(C(C)(C)O)cn5)cn5ncc(C#N)c45)cn2)C3)cn1 .
1130

Return reported IC50 for target or system BAF3 cells, item COc1ccc(CN2C3CC2CN(c2cnc(-c4cc(-c5ccc(C(C)(C)O)cn5)cn5ncc(C#N)c45)cn2)C3)cn1 .
1020

Output reported IC50 of the compound COc1ccc(CN2C3CC2CN(c2ccc(-c4cc(-c5ccc(C(C)(C)O)nc5)cn5ncc(C#N)c45)cn2)C3)cn1 on BAF3 cells.
1050

Print BAF3 cells IC50 for CC(C)(O)c1ccc(-c2cc(-c3ccc(N4C5CC6CC4CC(NC(=O)c4ncccc4Cl)(C6)C5)nc3)c3c(C#N)cnn3c2)nc1 .
1140

Specify IC50 for COc1ccc(CN2C3CC2CN(c2ccc(-c4cc(-c5cc(C(C)(C)NC(C)=O)n(C)n5)cn5ncc(C#N)c45)cn2)C3)cn1 , system BAF3 cells.
2330

Answer briefly: IC50 recorded on BAF3 cells for COc1ccc(C(=O)NC23CC4CC(C2)N(c2cnc(-c5cc(-c6ccc(C(C)(C)O)cn6)cn6ncc(C#N)c56)cn2)C(C4)C3)cn1
362

Answer with IC50 of COc1ccc(C(=O)N2C3CC2CN(c2ccc(-c4cc(-c5ccc(C(C)(C)O)cn5)cn5ncc(C#N)c45)cn2)C3)cn1 measured for BAF3 cells.
6650

Specify the recorded IC50 for COc1ccc(CN2C3CC2CN(c2ccc(-c4cc(-c5ccc(OCC(C)(C)O)cn5)cn5ncc(C#N)c45)cn2)C3)cn1 , system: BAF3 cells.
1620

Fill in IC50 for COc1ccc(CN2C3CC2CN(c2ccc(-c4cc(-c5ccc(C(C)(C)O)nn5)cn5ncc(C#N)c45)cn2)C3)cn1 tested with BAF3 cells.
1260

Param request: IC50 | system BAF3 cells | item COc1ccc(CN2C3CC2CN(c2ccc(-c4cc(-c5ccc(S(N)(=O)=O)cn5)cn5ncc(C#N)c45)cn2)C3)cn1
8210

Under BAF3 cells, report IC50 for COc1ccc(CN2C3CC2CN(c2ccc(-c4cc(-c5ccc(C6(N)CC6)cn5)cn5ncc(C#N)c45)cn2)C3)cn1
2770

Provide IC50, system BAF3 cells, entry COc1ccc(CN2C3CC2CN(c2ccc(-c4cc(-c5ncc(C(C)(C)O)cn5)cn5ncc(C#N)c45)cn2)C3)cn1
2670

Give BAF3 cells IC50 for the following compound: COc1ccc(CN2C3CC2CN(c2ccc(-c4cc(-c5ccc(C(C)(C)O)cc5)cn5ncc(C#N)c45)cn2)C3)cn1
756

Please look at CC(C)(O)c1ccc(-c2cc(-c3ccc(N4C[C@@H]5[C@H](C4)[C@H]5NC(=O)c4ncccc4Cl)nc3)c3c(C#N)cnn3c2)nc1 and tell me its recorded IC50 on BAF3 cells.
351

Look up and report IC50, with BAF3 cells as system, for COc1ccc(CN2C3CC2CN(c2ccc(-c4cc(-c5ccc(C(C)(C)NC(C)=O)cn5)cn5ncc(C#N)c45)cn2)C3)cn1
1050

Jot down IC50 (BAF3 cells) of CCC(=O)c1ccc(-c2cc(-c3ccc(N4CC5CC(C4)N5Cc4ccc(OC)nc4)nc3)c3c(C#N)cnn3c2)nc1 .
4460

Output reported IC50 of the compound CC(C)(O)c1ccc(-c2cc(-c3cnc(N4C5CC6CC4CC(NC(=O)c4ncccc4Cl)(C6)C5)cn3)c3c(C#N)cnn3c2)nc1 on BAF3 cells.
1170

Name the value of IC50 reported for CC(C)(O)c1ccc(-c2cc(-c3ccc(N4C[C@@H]5[C@@H](CNC(=O)c6ncccc6Cl)[C@@H]5C4)nc3)c3c(C#N)cnn3c2)nc1 when tested on BAF3 cells.
516

Fill in: IC50 on BAF3 cells, entry COc1ccc(CN2C3CC2CN(c2ccc(-c4cc(-c5ccc(C(C)(C)O)s5)cn5ncc(C#N)c45)cn2)C3)cn1
913

Param request: IC50 | system BAF3 cells | item COc1ccc(CN2C3CC2CN(c2ccc(-c4cc(-c5ccn(CC(C)(C)O)n5)cn5ncc(C#N)c45)cn2)C3)cn1
1800
